# System: UGT8 (Homo sapiens)
# Construct: host or cells: OE19 cells
# Sequence (Q16880 21-541): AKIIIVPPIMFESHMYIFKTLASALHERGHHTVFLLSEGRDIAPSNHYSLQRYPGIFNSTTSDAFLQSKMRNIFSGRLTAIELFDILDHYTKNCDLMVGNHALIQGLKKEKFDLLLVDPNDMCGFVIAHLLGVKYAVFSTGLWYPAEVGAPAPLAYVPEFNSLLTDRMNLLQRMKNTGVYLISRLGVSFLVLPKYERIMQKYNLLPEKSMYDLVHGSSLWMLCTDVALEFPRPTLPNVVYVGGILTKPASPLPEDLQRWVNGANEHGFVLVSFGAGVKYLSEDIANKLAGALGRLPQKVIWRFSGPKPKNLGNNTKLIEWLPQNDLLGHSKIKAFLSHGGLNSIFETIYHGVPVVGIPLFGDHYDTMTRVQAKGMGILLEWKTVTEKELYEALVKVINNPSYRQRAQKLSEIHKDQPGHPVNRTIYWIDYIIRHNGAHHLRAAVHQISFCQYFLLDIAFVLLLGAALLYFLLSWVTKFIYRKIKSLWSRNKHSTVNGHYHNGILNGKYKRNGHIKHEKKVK
# Assay Remarks: In vitro sulfatide (SFT) synthesis inhibition in OE19 cells, LC-MS/MS readout
# Format: cell-based
# Condition Summary: 72 hr, sulfatide by LC-MS/MS, read-out: Potency range (IC50, In-vitro SFT)
# Procedure: For medium throughput screening, library compounds were dispensed into CellBIND 384 well plates to a final concentration of 10 μM. OE19 cells (Sigma) were grown in to 70-90% confluency in RPMI 1640+L-glutamine and […]; were trypsinized to achieve suspension and were aliquoted at 2,500 cells/well, total well volume 50 μl. […] SFT was analyzed using an Applied Biosystems API-4000 triple quad mass spectrometer interfaced to a Thermo Scientific Multiplex system (LX-4) equipped with four pumps. […]
pIC50: −log10 of the molar value.
// pIC50 lookup, one value per entry

- CNC(=O)c1csc2c(C(F)(F)F)cc(N3CCC(OC(=O)N[C@H](C)CF)CC3)nc12 [Example 692]: > 7.00
- CNC(=O)c1csc2c(C(F)(F)F)cc(N3CCC(Oc4cccc(C)n4)CC3)nc12 [Example 145]: > 7.00
- CNC(=O)c1csc2c(C(F)(F)F)c(C)c(O[C@@H]3CCN(C(=O)O[C@@H](C)COC(F)(F)F)[C@H](C)C3)nc12 [Example 176]: > 7.00
- CNC(=O)c1csc2c(C(F)(F)F)cc(N3CC[C@H](OC(=O)N(C(C)C)C(C)C)[C@@H](F)C3)nc12 (racemic) [Example 488]: > 7.00
- CNC(=O)c1csc2c(C(F)(F)F)cc(N3CC[C@H](OC(=O)NC(C)C)[C@@H](F)C3)nc12 [Example 496]: > 7.00

Could you share which pIC50 value was measured for CNC(=O)c1csc2c(C(F)(F)F)c(C)c(O[C@@H]3CCN(C(=O)O[C@@H](C)COC(F)(F)F)C[C@@H]3F)nc12 [Example 181] ?
> 7.00

Input CNC(=O)c1csc2c(C(F)(F)F)cc(N3CCC(OC(=O)N4CCn5nccc5C4)CC3)nc12 [Example 95]
> 7.00

Input CNC(=O)c1csc2c(C(F)(F)F)cc(N3CCC(NC(=O)OCCOC(F)(F)F)CC3)nc12 [Example 520]
> 7.00

Input CNC(=O)c1csc2c(C(F)(F)F)cc(N3CCN(C(=O)COC(C)C)CC3)nc12 [Example 44]
6.00 to 7.00

Input CNC(=O)c1csc2c(C(F)(F)F)cc(OC3CCN(C(=O)OCCOC(F)(F)F)CC3)nc12 [Example 171]
> 7.00

Input CNC(=O)c1csc2c(C(F)(F)F)cc(O[C@H]3CCN(C(=O)OCCOC(F)(F)F)C3)nc12 [Example 600]
> 7.00

Input CNC(=O)c1csc2c(C(F)(F)F)cc(N3CCC(OC(=O)N4C[C@H](N(C)C)[C@@H]4C)CC3)nc12 [Example 793]
6.00 to 7.00

Input CNC(=O)c1csc2c(C(F)(F)F)cc(O[C@@H]3CCN(C(=O)O[C@@H](C)COC(F)(F)F)[C@H](C)C3)nc12 [Example 175]
> 7.00

Input CNC(=O)c1csc2c(C(F)(F)F)cc(N3CCC(OC(=O)N4CC5(CCN5C)C4)CC3)nc12 [Example 806]
> 7.00

Input CNC(=O)c1csc2c(C(F)(F)F)cc(O[C@H]3CCN(C(=O)NCC4CC4)C3)nc12 [Example 594]
6.00 to 7.00

Input CNC(=O)c1csc2c(C(F)(F)F)c(C)c(O[C@@H]3CCN(C(=O)OCCOC(F)(F)F)C[C@@H]3F)nc12 [Example 180]
> 7.00

Input COC(=O)c1csc2c(C(F)(F)F)cc(N3CCC(NC(=O)OC(C)(C)C)C3)nc12 (stereo not drawn) [Example 659]
6.00 to 7.00

Input CNC(=O)c1csc2c(C(F)(F)F)cc(O[C@@H]3CCN(C(=O)OC(C)(C)C)[C@H](C)C3)nc12 [Example 373]
> 7.00
